Target: αCβ1 (Oncopeltus fasciatus, UniProt A0A8S4MUF7)
Sequence (A0A8S4MUF7 1-1007): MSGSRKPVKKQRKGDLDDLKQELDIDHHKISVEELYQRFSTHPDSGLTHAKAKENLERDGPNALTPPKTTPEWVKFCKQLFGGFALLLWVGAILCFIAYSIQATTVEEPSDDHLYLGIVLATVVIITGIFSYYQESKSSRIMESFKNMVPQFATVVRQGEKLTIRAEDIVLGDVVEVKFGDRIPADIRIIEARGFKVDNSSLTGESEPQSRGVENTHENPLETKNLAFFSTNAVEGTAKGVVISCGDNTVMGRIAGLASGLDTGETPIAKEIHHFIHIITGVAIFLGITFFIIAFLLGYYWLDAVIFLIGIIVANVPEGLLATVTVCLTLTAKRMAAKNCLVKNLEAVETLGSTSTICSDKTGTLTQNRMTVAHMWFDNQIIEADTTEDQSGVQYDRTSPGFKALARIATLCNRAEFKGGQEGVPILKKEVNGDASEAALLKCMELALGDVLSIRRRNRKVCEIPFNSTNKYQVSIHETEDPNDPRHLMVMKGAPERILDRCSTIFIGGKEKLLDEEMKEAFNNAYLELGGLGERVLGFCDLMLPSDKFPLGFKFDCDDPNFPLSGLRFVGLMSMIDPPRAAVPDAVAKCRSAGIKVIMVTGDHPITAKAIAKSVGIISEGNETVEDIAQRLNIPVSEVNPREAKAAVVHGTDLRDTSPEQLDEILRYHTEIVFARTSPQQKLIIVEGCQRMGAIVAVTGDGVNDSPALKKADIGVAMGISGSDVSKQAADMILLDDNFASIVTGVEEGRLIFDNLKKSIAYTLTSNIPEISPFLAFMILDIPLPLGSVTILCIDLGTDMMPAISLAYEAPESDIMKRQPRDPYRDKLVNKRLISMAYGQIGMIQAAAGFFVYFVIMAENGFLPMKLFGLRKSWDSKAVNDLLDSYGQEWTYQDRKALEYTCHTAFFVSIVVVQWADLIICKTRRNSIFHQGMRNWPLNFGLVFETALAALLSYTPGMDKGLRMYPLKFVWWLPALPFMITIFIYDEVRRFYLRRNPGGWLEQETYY
Sequence (A0A8S4MTC7 1-330 partner): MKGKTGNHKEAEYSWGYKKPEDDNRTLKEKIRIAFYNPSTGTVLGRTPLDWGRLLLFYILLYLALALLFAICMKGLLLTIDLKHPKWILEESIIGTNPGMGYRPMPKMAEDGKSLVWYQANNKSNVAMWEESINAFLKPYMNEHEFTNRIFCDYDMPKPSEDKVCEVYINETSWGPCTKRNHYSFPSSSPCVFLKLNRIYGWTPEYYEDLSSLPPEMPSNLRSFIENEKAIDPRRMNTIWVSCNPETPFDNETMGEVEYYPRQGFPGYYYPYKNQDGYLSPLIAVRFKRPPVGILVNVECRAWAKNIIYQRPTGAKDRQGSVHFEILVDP
OUTCOME MEASURE: IC50 (µM)
Lab book: enter the figure in µM, no units written.

C[C@@H]1O[C@@H](O[C@H]2C[C@@H](O)[C@]3(CO)[C@H]4[C@H](O)C[C@]5(C)[C@@H](C6=CC(=O)OC6)CC[C@]5(O)[C@@H]4CC[C@]3(O)C2)[C@H](O)[C@H](O)[C@H]1O [ouabain] has a reported IC50 of 427
